Each entry below carries its recorded apparent Kd.
Test system: MS2 coat protein
Experiment: apparent Kd, MS2 coat protein; higher = weaker binding; RNA-MaP array; FMN 200 µM where present
Conditions: designed as: OFF switch for flavin mononucleotide; no ligand

>  <Residue Sequence>
GGAAAACAUGAGGAUCACCCAUGUGAGGAUAUCGAUGUCCAGGGCCGGGUGCGGGACUCGAGAAGGCACUUGGA

>  <apparent Kd [nM]>
64.5

$$$$
>  <Residue Sequence>
UUCAGCUCGUGAGGAUAUACAUGUGCUGGAAACAGCACUAUUAAAUUCACAUGAGGAUCACCCAUGUAGAAGGCACGAGCUGAG

>  <apparent Kd [nM]>
15.4

$$$$
>  <Residue Sequence>
UGUGUGUGGGCAGGAUAUGCAUGAAUAUGUAUGAUGUAGUGUGAUGUAACAUGAGGAUCACCCAUGUAGAAGGGCCGGUGUGUG

>  <apparent Kd [nM]>
99.3

$$$$
>  <Residue Sequence>
UUAAGUCAUGUAGGAUAUCCGAGGCGAAGCGUUGGAGAAGGACAUGAGGAUCACCCAUGUUCUAGCGUCUGAGUACAGAUGCAG

>  <apparent Kd [nM]>
29.5

$$$$
>  <Residue Sequence>
UCACAGUGUCGUUAUCCGUAGCGAACAUGAGGAUCACCCAUGUAGGAUAUGUUAUUAAACUAAUAACAGAAGGACGUUGGUCGG

>  <apparent Kd [nM]>
36.7

$$$$
>  <Residue Sequence>
UAUAUAUAGUAAGGAUAUGUAAUUAAUUUAUAAACAGAAGGUACUGACAUGAGGAUCACCCAUGUUUUAGUGUGGGCAUGUAGA

>  <apparent Kd [nM]>
95.3

$$$$
>  <Residue Sequence>
UGAGCAAGAGGAUAUACAAGGCGACCGUGAGGUCGAGGUUUACAUGAGGAUCACCCAUGUAGAAGGCUUGUUCU

>  <apparent Kd [nM]>
17.2

$$$$
>  <Residue Sequence>
GUCAGCUCGUGAGGAUAUACAACACUGCUUCGGCAGUGUAUUAAGAGCACAUGAGGAUCACCCAUGUAGAAGGCACGAGCUGAU

>  <apparent Kd [nM]>
5.58

$$$$
>  <Residue Sequence>
AAAUCAGCAGGAUAUACGAUGUUAUGCUAGAUAGCGGGACCACAUGAGGAUCACCCAUGUAGAAGGGCUAGAUA

>  <apparent Kd [nM]>
35

$$$$
>  <Residue Sequence>
GUAGCAACAUGAGGAUCACCCAUGUAGGAUAUCGCUAUUGUAAUCAUGAAACAUGAUUACAAUAGCGAGAAGGACAUAUGCUAU

>  <apparent Kd [nM]>
7

$$$$
>  <Residue Sequence>
UUAUUAAGUGUGAGGAUAUGCUGGUCCUUGGAUCAGCAGAAGGCACAUGAGGAUCACCCAUGUACAAUAUAUUA

>  <apparent Kd [nM]>
38.5

$$$$
>  <Residue Sequence>
CUAUCUUGCAAGGAUAUGCAAUUUAUUAUUUAUGCAGAAGGUGCUACAUGAGGAUCACCCAUGUUUCUGGGUUU

>  <apparent Kd [nM]>
134

$$$$
>  <Residue Sequence>
UUAUUUUUACAGAAGGUUUAAUACUAUGUAUGAGAAGGAUAUGUAACAUGAGGAUCACCCAUGUUUUAUUUAUAUGAGGUUCGU

>  <apparent Kd [nM]>
13.8

$$$$
>  <Residue Sequence>
GAGGACUGUAAAUUAACUCAAAUACAUGAGGAUCACCCAUGUAAGGAUAUCGUCAGGAAUACUGACGAGAAGGUACAUCAGUCC

>  <apparent Kd [nM]>
14.4

$$$$
>  <Residue Sequence>
UGAUAGGACAGAGGAUAUACGUAUAAUUCCUUCAACAUGAGGAUCACCCAUGUAGAAGGCUGUCCUAUCUAAGUCGGAAACGAC

>  <apparent Kd [nM]>
4.81

$$$$
